These measurements were taken from paper PMC3135172.

Biological target: BPTF bromodomain (human)
Experiment: ITC
Where no end group is shown, it is not given here.
readout: pKd
In textbook form, pKd equals minus log to base ten of the concentration in mol/L.

Given the entry GKGLGK(Ac)GGAKR (not fully specified) [H4K12ac peptide] , report its measured pKd. 4.16
